System: subcutaneous rat implant model
RUN DESCRIPTION: Subcutaneous rat implant model, collagen/GFm sponges supplemented with calcium phosphates (Example 3/5)
Format: in vivo
CONDITION SUMMARY: intra-animal comparison subset
Method: The advantages of the rat model for product evaluation include an accelerated rate of bone induction. Visible evidence of mineralization appears in the implant within several days (˜10), with typical experiments lasting between 14 and 21 days. […] Samples were assessed in comparison to two different control sample populations, including: collagen sponges and collagen/GFm sponges supplemented with 50 wt % devitalized bone matrix (DVBM) additives. […]
PARAMETER: Mineral mass, Direct Comparison Average (mg)
A number alone suffices; assume mg.

*Q* Provide only the value of recorded Mineral mass, Direct Comparison Average for O=P([O-])([O-])[O-].O=P([O-])([O-])[O-].[Ca+2].[Ca+2].[Ca+2] [3CaO•P2O5 (α-TCP), tricalcium phosphate]
*A* 9.4

*Q* Provide only the value of recorded Mineral mass, Direct Comparison Average for O=C([O-])[O-].[Ca+2] [CaCO3 (aragonite), calcium carbonate]
*A* 14.5

*Q* Provide only the value of recorded Mineral mass, Direct Comparison Average for O=P([O-])([O-])OP(=O)([O-])[O-].[Ca+2].[Ca+2] [2CaO•P2O5•2H2O (CP), calcium pyrophosphate]
*A* 31.5

*Q* Provide only the value of recorded Mineral mass, Direct Comparison Average for O=P([O-])([O-])[O-].O=P([O-])([O-])[O-].[Ca+2].[Ca+2].[Ca+2] [3CaO•P2O5 (β-TCP), tricalcium phosphate]
*A* 5.7

*Q* Provide only the value of recorded Mineral mass, Direct Comparison Average for O=C([O-])[O-].[Ca+2] [CaCO3 (calcite), calcium carbonate]
*A* 8.1
